The reader will find reported log10 IC50 values listed item by item below.
molecular target: human BChE (hBChE), human plasmatic butyrylcholinesterase (Homo sapiens, UniProt P06276); assay: hBChE inhibition, modified Ellman's method; assay type: biochemical; conditions: mean of at least three experiments; read-out: IC50 hBChE
Sequence (P06276 29-602): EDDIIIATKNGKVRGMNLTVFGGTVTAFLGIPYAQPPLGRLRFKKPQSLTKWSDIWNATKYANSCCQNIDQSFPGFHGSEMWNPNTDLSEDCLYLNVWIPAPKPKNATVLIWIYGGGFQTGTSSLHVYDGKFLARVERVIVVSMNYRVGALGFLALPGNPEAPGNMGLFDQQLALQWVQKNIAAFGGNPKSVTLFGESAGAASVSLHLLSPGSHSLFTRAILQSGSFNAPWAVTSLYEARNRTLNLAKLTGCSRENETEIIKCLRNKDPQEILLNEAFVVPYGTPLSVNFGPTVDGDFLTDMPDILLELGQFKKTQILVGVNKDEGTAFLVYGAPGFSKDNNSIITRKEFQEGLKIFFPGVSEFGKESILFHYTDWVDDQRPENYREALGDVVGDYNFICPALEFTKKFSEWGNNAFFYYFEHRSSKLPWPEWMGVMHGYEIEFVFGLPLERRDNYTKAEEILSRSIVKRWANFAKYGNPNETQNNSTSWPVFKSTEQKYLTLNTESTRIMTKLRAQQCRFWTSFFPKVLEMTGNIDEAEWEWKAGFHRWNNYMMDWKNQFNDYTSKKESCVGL
Transform log10 | Measure IC50 | Unit nM

{"columns": ["COMPOUND", "NUMERIC READOUT"],
 "data": [
  ["O=c1c(NCCCCNc2c3c(nc4cc(Cl)ccc24)CCCC3)c(NCCCCNc2c3c(nc4cc(Cl)ccc24)CCCC3)c1=O [Compound 4c]", 2.23]
]}

Request: Quick one: log10 IC50 of COc1ccc2nc3c(c(NCCCCCCNc4c(NCCCCCCNc5c6c(nc7ccc(OC)cc57)CCCC6)c(=O)c4=O)c2c1)CCCC3 [Compound 5e] ?
Response: 3.04

Request: Quick one: log10 IC50 of O=c1c(NCCCCCCCNc2c3c(nc4cc(Cl)ccc24)CCCC3)c(NCCCCCCCNc2c3c(nc4cc(Cl)ccc24)CCCC3)c1=O [Compound 4f] ?
Response: 2.65

Request: Quick one: log10 IC50 of COc1ccc2nc3c(c(NCCNc4c(NCCNc5c6c(nc7ccc(OC)cc57)CCCC6)c(=O)c4=O)c2c1)CCCC3 [Compound 5a] ?
Response: 2.11

Request: Quick one: log10 IC50 of O=c1c(NCCCCCCNc2c3c(nc4cc(Cl)ccc24)CCCC3)c(NCCCCCCNc2c3c(nc4cc(Cl)ccc24)CCCC3)c1=O [Compound 4e] ?
Response: 2.73

Request: Quick one: log10 IC50 of O=c1c(NCCCCCNc2c3c(nc4cc(Cl)ccc24)CCCC3)c(NCCCCCNc2c3c(nc4cc(Cl)ccc24)CCCC3)c1=O [Compound 4d] ?
Response: 2.49

====

The reader will find reported SI (selectivity index for hAChE) values listed item by item below.
target: human AChE (hAChE), recombinant acetylcholinesterase (Homo sapiens, UniProt P22303); construct: made in house; test: hAChE inhibition, modified Ellman's method; type: biochemical; conditions: ratio IC50(hBChE)/IC50(hAChE)
A bare number is all that is needed in reply.

{"columns": ["SMILES NOTATION", "SI (selectivity index for hAChE)"],
 "data": [
  ["O=c1c(NCCCNc2c3c(nc4cc(Cl)ccc24)CCCC3)c(NCCCNc2c3c(nc4cc(Cl)ccc24)CCCC3)c1=O", 55]
]}

Request: Quick one: SI (selectivity index for hAChE) of O=c1c(NCCCCCNc2c3c(nc4cc(Cl)ccc24)CCCC3)c(NCCCCCNc2c3c(nc4cc(Cl)ccc24)CCCC3)c1=O ?
Response: 38

Request: Quick one: SI (selectivity index for hAChE) of O=c1c(NCCCCCCCCNc2c3c(nc4ccccc24)CCCC3)c(NCCCCCCCCNc2c3c(nc4ccccc24)CCCC3)c1=O ?
Response: 0.7

Request: Quick one: SI (selectivity index for hAChE) of COc1ccc2nc3c(c(NCCCCCNc4c(NCCCCCNc5c6c(nc7ccc(OC)cc57)CCCC6)c(=O)c4=O)c2c1)CCCC3 ?
Response: 5.7

Request: Quick one: SI (selectivity index for hAChE) of O=c1c(NCCCCNc2c3c(nc4ccccc24)CCCC3)c(NCCCCNc2c3c(nc4ccccc24)CCCC3)c1=O ?
Response: 14

Request: Quick one: SI (selectivity index for hAChE) of O=c1c(NCCNc2c3c(nc4cc(Cl)ccc24)CCCC3)c(NCCNc2c3c(nc4cc(Cl)ccc24)CCCC3)c1=O ?
Response: 36

Request: Quick one: SI (selectivity index for hAChE) of O=c1c(NCCCCCCNc2c3c(nc4cc(Cl)ccc24)CCCC3)c(NCCCCCCNc2c3c(nc4cc(Cl)ccc24)CCCC3)c1=O ?
Response: 170

Request: Quick one: SI (selectivity index for hAChE) of COc1ccc2nc3c(c(NCCNc4c(NCCNc5c6c(nc7ccc(OC)cc57)CCCC6)c(=O)c4=O)c2c1)CCCC3 ?
Response: 0.7

Request: Quick one: SI (selectivity index for hAChE) of COc1ccc2nc3c(c(NCCCNc4c(NCCCNc5c6c(nc7ccc(OC)cc57)CCCC6)c(=O)c4=O)c2c1)CCCC3 ?
Response: 8.1

Request: Quick one: SI (selectivity index for hAChE) of COc1ccc2nc3c(c(NCCCCCCNc4c(NCCCCCCNc5c6c(nc7ccc(OC)cc57)CCCC6)c(=O)c4=O)c2c1)CCCC3 ?
Response: 7.3

Request: Quick one: SI (selectivity index for hAChE) of O=c1c(NCCCCCNc2c3c(nc4ccccc24)CCCC3)c(NCCCCCNc2c3c(nc4ccccc24)CCCC3)c1=O ?
Response: 8.5

Request: Quick one: SI (selectivity index for hAChE) of COc1ccc2nc3c(c(NCCCCCCCCNc4c(NCCCCCCCCNc5c6c(nc7ccc(OC)cc57)CCCC6)c(=O)c4=O)c2c1)CCCC3 ?
Response: 5.9

====

target: hBChE (Homo sapiens)
Sequence (P06276 29-602): as above
OBSERVATION TYPE: pKi
The quantity pKi is defined as the negative base-10 logarithm of the molar concentration.

Request: hBChE (Homo sapiens) / pKi / O=c1c(NCCCCCCNc2c3c(nc4ccccc24)CCCC3)c(NCCCCCCNc2c3c(nc4ccccc24)CCCC3)c1=O [Compound 3e] : value?
Response: 8.09

====

conditions: PAMPA, PBS pH 7.4
Exam item: assign t to entries whose Pe is below 6 ×10⁻⁶ cm/s and f to entries at or above 6 ×10⁻⁶ cm/s. Note that a value of exactly 6 ×10⁻⁶ cm/s receives f.

{"columns": ["MOLECULE", "CATEGORY LABEL"],
 "data": [
  ["O=c1c(NCCNc2c3c(nc4ccccc24)CCCC3)c(NCCNc2c3c(nc4ccccc24)CCCC3)c1=O", "t"]
]}

Request: Lab note: confirm whether the reported Pe for this molecule is below 6 ×10⁻⁶ cm/s, equality not counting. molecule: O=c1c(NCCCCCCNc2c3c(nc4cc(Cl)ccc24)CCCC3)c(NCCCCCCNc2c3c(nc4cc(Cl)ccc24)CCCC3)c1=O
Response: f

Request: Lab note: confirm whether the reported Pe for this molecule is below 6 ×10⁻⁶ cm/s, equality not counting. molecule: CC(C)Cc1ccc(C(C)C(=O)O)cc1 (stereo not drawn) [ibuprofen, reference compound]
Response: f

Request: Lab note: confirm whether the reported Pe for this molecule is below 6 ×10⁻⁶ cm/s, equality not counting. molecule: CNC(=C[N+](=O)[O-])NCCSCc1ccc(CN(C)C)o1 [ranitidine, reference compound]
Response: t

Request: Lab note: confirm whether the reported Pe for this molecule is below 6 ×10⁻⁶ cm/s, equality not counting. molecule: COc1ccc2nc3c(c(NCCNc4c(NCCNc5c6c(nc7ccc(OC)cc57)CCCC6)c(=O)c4=O)c2c1)CCCC3
Response: t

====

target: human AChE (hAChE), recombinant acetylcholinesterase (Homo sapiens); test: hAChE inhibition, modified Ellman's method
Exam item: assign 1 to entries whose IC50 is below 100 nM and 0 to entries at or above 100 nM. Note that a value of exactly 100 nM receives 0.

Recorded results for 10 compounds are shown here.
{"columns": ["SMILES NOTATION", "CATEGORY LABEL"],
 "data": [
  ["COc1ccc2nc3c(c(NCCNc4c(NCCNc5c6c(nc7ccc(OC)cc57)CCCC6)c(=O)c4=O)c2c1)CCCC3", 0],
  ["COc1ccc2nc3c(c(NCCCCNc4c(NCCCCNc5c6c(nc7ccc(OC)cc57)CCCC6)c(=O)c4=O)c2c1)CCCC3", 0],
  ["COc1ccc2nc3c(c(NCCCCCCCNc4c(NCCCCCCCNc5c6c(nc7ccc(OC)cc57)CCCC6)c(=O)c4=O)c2c1)CCCC3", 0],
  ["COc1ccc2nc3c(c(NCCCCCCNc4c(NCCCCCCNc5c6c(nc7ccc(OC)cc57)CCCC6)c(=O)c4=O)c2c1)CCCC3", 0],
  ["O=c1c(NCCCCCCCCNc2c3c(nc4ccccc24)CCCC3)c(NCCCCCCCCNc2c3c(nc4ccccc24)CCCC3)c1=O", 1],
  ["COc1ccc2nc3c(c(NCCCCCNc4c(NCCCCCNc5c6c(nc7ccc(OC)cc57)CCCC6)c(=O)c4=O)c2c1)CCCC3", 0],
  ["COc1ccc2nc3c(c(NCCCNc4c(NCCCNc5c6c(nc7ccc(OC)cc57)CCCC6)c(=O)c4=O)c2c1)CCCC3", 0],
  ["O=c1c(NCCCNc2c3c(nc4cc(Cl)ccc24)CCCC3)c(NCCCNc2c3c(nc4cc(Cl)ccc24)CCCC3)c1=O", 1],
  ["O=c1c(NCCNc2c3c(nc4ccccc24)CCCC3)c(NCCNc2c3c(nc4ccccc24)CCCC3)c1=O", 1],
  ["O=c1c(NCCCCCNc2c3c(nc4ccccc24)CCCC3)c(NCCCCCNc2c3c(nc4ccccc24)CCCC3)c1=O", 1]
]}

Request: Lab note: confirm whether the reported IC50 for this compound is below 100 nM, equality not counting. compound: O=c1c(NCCCCNc2c3c(nc4cc(Cl)ccc24)CCCC3)c(NCCCCNc2c3c(nc4cc(Cl)ccc24)CCCC3)c1=O
Response: 1

Request: Lab note: confirm whether the reported IC50 for this compound is below 100 nM, equality not counting. compound: O=c1c(NCCCCCCCNc2c3c(nc4ccccc24)CCCC3)c(NCCCCCCCNc2c3c(nc4ccccc24)CCCC3)c1=O
Response: 1

Request: Lab note: confirm whether the reported IC50 for this compound is below 100 nM, equality not counting. compound: O=c1c(NCCCCNc2c3c(nc4ccccc24)CCCC3)c(NCCCCNc2c3c(nc4ccccc24)CCCC3)c1=O
Response: 1

Request: Lab note: confirm whether the reported IC50 for this compound is below 100 nM, equality not counting. compound: O=c1c(NCCCCCCCNc2c3c(nc4cc(Cl)ccc24)CCCC3)c(NCCCCCCCNc2c3c(nc4cc(Cl)ccc24)CCCC3)c1=O
Response: 1

Data origin: paper PMC6723352
